experiment: Solubilities at room temperature (about 25°C) in various solvents; type: physicochemical; conditions: water, room temperature (about 25°C); read-out: Solubility in water
attribute.measured: solubility

INPUT: # get_value(readout='solubility', item= `CC(C)(C)C(=O)OCOC(=O)[C@@H]1N2C(=O)[C@@H](NC(=O)[C@H](N)c3ccccc3)[C@H]2SC1(C)C` )
OUTPUT: 100 µg/mL
